experiment: drug combination growth inhibition, ovarian cancer – cell-based, oncology-focused library, rucaparib conditional, profiling panel (AID 1508598); conditions: patient-derived ovarian cancer cells, CellTiter-Glo viability, 144 h; at 1.25 µM; OCI-P5x cells; with rucaparib 20 µM; stronger effect = lower value; 100% = cells with rucaparib alone
value-type: viability (%)

>>> df
                            chemical_string  value_type  unit  quantitative_result
0  C=C(c1ccc(C(=O)O)cc1)c1cc2c(cc1C)C(C)(C)CCC2(C)C   viability     %                  117
1  CCC[C@H](NC(=O)/C(C#N)=C/c1cccc(Br)n1)c1ccccc1   viability     %                 46.8
2  Cc1ccc(NC(=O)c2cccc(C(C)(C)C#N)c2)cc1Nc1ccc2ncn(C)c(=O)c2c1   viability     %                 73.2
3     COc1c(C)cnc(Cn2cnc3c(Cl)nc(N)nc32)c1C   viability     %                    9
4  CS(=O)(=O)c1ccc(C(=O)Nc2ccc(Cl)c(-c3ccccn3)c2)c(Cl)c1   viability     %                  108
5  COc1cc(Nc2ncc(F)c(Nc3ccc4c(n3)NC(=O)C(C)(C)O4)n2)cc(OC)c1OC   viability     %                 81.5
6  O=C(CCCCCCC(=O)Nc1ccc([C@H]2O[C@@H](CSc3nc(-c4ccccc4)c(-c4ccccc4)o3)C[C@@H](c3ccc(CO)cc3)O2)cc1)NO   viability     %                  106
7  COCCn1c2c([n+](Cc3cnccn3)c1C)C(=O)c1ccccc1C2=O   viability     %                 1.09
8       Cc1ccc2c(=O)c3cccc(CC(=O)O)c3oc2c1C   viability     %                  104

* * *

experiment: BT084 cell growth, single and combined drugs, ICGC_MB145, cisplatin and BGB IC40 combos (AID 1671461); conditions: BT084 medulloblastoma cells, drug combinations, single agent, at 5 µM, stronger effect = higher value;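 also: cells exposed to drugs for 96 hours; 0% = vehicle DMSO and 100% = high DMSO full killing control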
Reported inhibition values for the following molecules.

chemical-string	inhibition
CN(C)C/C=C/C(=O)Nc1ccc(C(=O)Nc2cccc(Nc3ncc(Cl)c(-c4c[nH]c5ccccc45)n3)c2)cc1	89%
NCCOc1cc(C(=O)Nc2cc(OCCN)c3ccccc3n2)nc(C(=O)Nc2cc(OCCN)c3ccccc3n2)c1	-22.2%
Cc1ccc([N+](=O)[O-])cc1S(=O)(=O)N(C)/N=C/c1cnc2ccc(Br)cn12	-25%
O=C(O)[C@H](Cc1c[nH]c2ccccc12)N1C(=O)c2ccccc2C1=O	-4.64%
CO[C@H]1/C=C/O[C@@]2(C)Oc3c(C)c(O)c4c(O)c(c(/C=N\N5CCN(C6CCCC6)CC5)c(O)c4c3C2=O)NC(=O)/C(C)=C\C=C\[C@H](C)[C@H](O)[C@@H](C)[C@@H](O)[C@@H](C)[C@H](OC(C)=O)[C@@H]1C	-12.9%
NC(=O)c1nc(F)c[nH]c1=O	4.66%
O=c1[nH]cnc2ccccc12	12.2%
COc1ccc(-n2c(SCCCN3C(=O)c4cccc5cccc(c45)C3=O)nnc2-c2ccncc2)cc1	-22%

* * *

assay: drug combination growth inhibition, ovarian cancer – cell-based, oncology-focused library, rucaparib conditional, profiling panel (AID 1508598); details: patient-derived ovarian cancer cells, CellTiter-Glo viability, 144 h; at 0.00122 µM; OCI-C5x cells; with rucaparib 10 µM; 100% = cells with rucaparib alone
The source made the active and inactive calls.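 How the source made its calls: active means normalized viability below 100% at a tested concentration; inactive means the rest.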
Outcome codes: Yes = active, No = inactive

>>> df
                             chemical_string  class
 0  O=C(O)[C@H](Cc1c[nH]c2ccccc12)N1C(=O)c2ccccc2C1=O     No
 1  O=C(NC1CCNCC1)c1[nH]ncc1NC(=O)c1c(Cl)cccc1Cl     No
 2  CC(=O)Nc1nc(C)c(-c2ccc(Cl)c(S(=O)(=O)NCCO)c2)s1     No
 3  COC(=O)Nc1ccc(-c2nc(N3CCOCC3)c3cnn(C4CCN(C(=O)OC)CC4)c3n2)cc1     No
 4  CNC(=O)c1ccc(C)c(-n2c(C)cc(OCc3ccc(F)cc3F)c(Br)c2=O)c1     No
 5  Cc1ccc(C(=O)Nc2ccc(CN3CCN(C)CC3)c(C(F)(F)F)c2)cc1C#Cc1cnc2cccnn12    Yes
 6  Nc1nccc(Oc2ccc(NC(=O)c3c[nH]cc(-c4ccc(F)cc4)c3=O)cc2F)c1Cl     No
 7  OCCn1cc(-c2cnc3nnn(Cc4ccc5ncccc5c4)c3n2)cn1     No
 8  CC(=O)c1c(C)c2cnc(Nc3ccc(N4CCNCC4)cn3)nc2n(C2CCCC2)c1=O     No
 9  CCC(CC)CC1(C(=O)Nc2ccccc2SC(=O)C(C)C)CCCCC1     No
10  CNC(=O)c1cc(Oc2ccc(NC(=O)Nc3ccc(Cl)c(C(F)(F)F)c3)c(F)c2)ccn1     No
11  C=CC(=O)Nc1cccc(Oc2nc(Nc3ccc(N4CCN(C)CC4)cc3OC)ncc2Cl)c1     No
12  CN(NC(=O)CC(=O)NN(C)C(=S)c1ccccc1)C(=S)c1ccccc1     No
13  Cc1ccc(C(=O)N(CCCN)[C@@H](c2nc3cc(Cl)ccc3c(=O)n2Cc2ccccc2)C(C)C)cc1    Yes
14  CN1CCCN(C(=O)c2cccc(-c3ccc(/C=C4/C(=O)Nc5ccc(Cl)cc54)o3)c2)CC1     No
15  COc1ccc(-n2c(SCCCN3C(=O)c4cccc5cccc(c45)C3=O)nnc2-c2ccncc2)cc1     No
16  CCCCc1nc2cc(/C=C/C(=O)NO)ccc2n1CCN(CC)CC     No
17  O=C(Nc1cccnc1)N1CCC(Cc2cccc(Oc3ccc(C(F)(F)F)cn3)c2)CC1     No
18    CN(C)Cc1ccc(-c2nc3cccc4c3n2CCNC4=O)cc1     No
19  COc1ncc(-c2ccc3nccc(-c4ccnnc4)c3c2)cc1NS(=O)(=O)c1ccc(F)cc1F    Yes
20  COCCOc1nc(-c2ccc(Cl)c(Cl)c2)n(-c2ccc(NC(=O)CCl)cc2)n1     No
21  CC[C@@H]1C(=O)N(C)c2cnc(Nc3ccc(C(=O)NC4CCN(C)CC4)cc3OC)nc2N1C1CCCC1     No
22                   O=C(O)c1ccc(O)c2ncccc12     No
23  CC1(C)CNc2cc(NC(=O)c3cccnc3NCc3ccncc3)ccc21     No
24  Cc1cc(Nc2nc(N[C@@H](C)c3ncc(F)cn3)ncc2Cl)n[nH]1     No
25  NC1(c2ccc(-c3nc4ccn5c(=O)[nH]nc5c4cc3-c3ccccc3)cc2)CCC1     No
26  Nc1ccc(C(=O)Nc2cccc(-c3nc(N4CCOCC4)c4oc5ncccc5c4n3)c2)cn1     No
27  O=C(Nc1cccc(Cl)c1)Nc1ncc(CCNc2ncnc3ccsc23)s1    Yes
28  Cc1ccc2nc(NC(=O)CSc3nc4c(c(=O)n3-c3ccccc3)SCC4)sc2c1     No
29  CC[C@H](Nc1ncnc2nc[nH]c12)c1nc2cccc(F)c2c(=O)n1-c1ccccc1     No
30  Cc1cnc(-c2ccccc2C(C)C)nc1NCc1ccc(-n2ccnn2)cc1     No
31  CC(C)n1nc(-c2ccc3oc(N)nc3c2)c2c(N)ncnc21     No
32  Cc1cc(Nc2cc(N3CCN(C)CC3)nc(/C=C/c3ccccc3)n2)n[nH]1     No
33  Cn1c(=O)c(F)c(Nc2ccc(I)cc2F)c2c(=O)n(C[C@@H](O)CO)cnc21     No
34  COc1cc(Nc2ncc3c(n2)-c2ccc(Cl)cc2C(c2c(F)cccc2OC)=NC3)ccc1C(=O)O     No
